Test target: T1, recombinant protein His-fib-hTL1A (human)
T1 chain: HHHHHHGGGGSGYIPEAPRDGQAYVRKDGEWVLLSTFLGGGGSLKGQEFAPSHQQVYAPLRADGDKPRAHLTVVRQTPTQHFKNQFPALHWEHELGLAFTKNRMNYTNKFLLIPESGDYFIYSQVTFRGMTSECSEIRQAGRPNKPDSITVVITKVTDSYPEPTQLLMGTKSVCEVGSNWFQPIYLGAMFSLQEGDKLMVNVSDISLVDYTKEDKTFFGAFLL
Test method notes: cell-based or functional assay
# reported IC50 of inhibition of NF-kB activation in TL1A-stimulated 293T-hDR3-NF-kB-RE-luci cells; entries follow
Supply the numeric figure in nM, leaving out any unit text.

// known answers, use as guide
## Task May I ask what IC50 of inhibition of NF-kB activation in TL1A-stimulated 293T-hDR3-NF-kB-RE-luci cells has been recorded for anti-TL1A monoclonal antibody RVT-3101 (antibody, V domains shown) VH: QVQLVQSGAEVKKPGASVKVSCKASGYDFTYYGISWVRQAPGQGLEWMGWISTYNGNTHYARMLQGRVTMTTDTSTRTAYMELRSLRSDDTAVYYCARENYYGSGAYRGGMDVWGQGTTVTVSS VL: EIVLTQSPATLSLSPGERATLSCRASQSVSSYLAWYQQKPGQAPRLLIYDASNRATGIPARFSGSGSGTDFTLTISSLEPEDFAVYYCQQRSNWPWTFGQGTKVEIK ?
## Result 1.28

## Task Reported IC50 of inhibition of NF-kB activation in TL1A-stimulated 293T-hDR3-NF-kB-RE-luci cells for mouse anti-TL1A monoclonal antibody S9H9 (antibody, V domains shown) VH: QVQLKQSGAELVRPGTSVKISCKASGYAFTNYWLGWIKQRPGHGLEWIGDIHPGRGNIFYNEKFKGKATLTADKSSSTAYMQLSSLTSEDSAVYFCAEGYDTFDYWGQGTTLTVSA VL: DIVMTQSHKFMSTSVGDRVSITCKASQDVSTAVAWYQQKPGQSPKLLIYSASYRYTGVPDRFTGSGSGTDFTFTISSVQAEDLAVYYCQQHYSTPWTFGGGTKLEMKR : what is it?
## Result 1.28

## Task Reported IC50 of inhibition of NF-kB activation in TL1A-stimulated 293T-hDR3-NF-kB-RE-luci cells for mouse anti-TL1A monoclonal antibody S7B11 (antibody, V domains shown) VH: QVKLQQSGGELVRPGTSVKISCKASGYAFTNYWLGWIKQRPGHGLEWIGDIHPGRGNIYYNEKFKGKATLTADKSSSTAYMQLSSLTSEDSAVYFCAEGYDTFDYWGQGTTLTVSS VL: DIVMTQSPSYLAASPGETITINCRASKSISKYLAWYQEKPGKTNKLLIYSGSTLQSGIPSRFSGSGSGTDFTLTISSLEPEDFAMYYCQQHNEYPYTFGGGTKLEIKR : what is it?
## Result 1.35

Consider the additional binder presented here.
## Task Which IC50 of inhibition of NF-kB activation in TL1A-stimulated 293T-hDR3-NF-kB-RE-luci cells value belongs to mouse anti-TL1A monoclonal antibody S4D3 (antibody, V domains shown) VH: QVQLKESGSDLATPGASVKLSCKVSGYTFTKYDINWVRQRPEQGLEWIGWIFPGDGRTDYNEKFKGKATLTIDTSSSTAYMQLSRLTSEDSAVYFCARYGYALDYWGQGTSVTVSS VL: DVVMTQTPLSLPVSLGDQASISCRSSQNIVHSNGDTYLEWFLQKPGQSPKLLIYKVSNRFSGVPDRFSGSGSGTDFTLKISRVEAEDLGVYYCFQGSHFPYTFGGGTKLEMKR ?
## Result 1.13
